# PROCEDURE TEXT: Intrinsic clearance in human hepatocytes measured per 10^6 cells
# Type: ADME, cell-based, Hepatocyte
# CONDITION: read-out: CLH
Mark rule met for hepatocyte CLint under 5 µL/min/1e6 cells, rule not met if at or over.

CC(C)(C)S(=O)(=O)C[C@H](C1CC1)N1C(=O)[C@@](C)(Cc2nc(CC(=O)O)cs2)C[C@H](c2cccc(Cl)c2)[C@H]1c1ccc(Cl)cc1: rule not met
CC(C)(C)S(=O)(=O)C[C@H](C1CC1)N1C(=O)[C@@](C)(Cc2cnc(C(=O)O)cn2)C[C@H](c2cccc(Cl)c2)[C@H]1c1ccc(Cl)cc1: rule not met
CC(C)(C)S(=O)(=O)C[C@H](C1CC1)N1C(=O)[C@@](C)(Cc2ncc(C(=O)O)cn2)C[C@H](c2cccc(Cl)c2)[C@H]1c1ccc(Cl)cc1: rule not met
CC(C)(C)S(=O)(=O)C[C@H](C1CC1)N1C(=O)[C@@](C)(Cc2ccc(C(=O)O)cn2)C[C@H](c2cccc(Cl)c2)[C@H]1c1ccc(Cl)c(F)c1: rule not met
CC(C)(C)S(=O)(=O)C[C@H](C1CC1)N1C(=O)[C@@](C)(Cc2nc(C(=O)O)cs2)C[C@H](c2cccc(Cl)c2)[C@H]1c1ccc(Cl)cc1: rule met
CC(C)(C)S(=O)(=O)C[C@H](C1CC1)N1C(=O)[C@@](C)(Cc2ncc(C(F)(F)C(=O)O)s2)C[C@H](c2cccc(Cl)c2)[C@H]1c1ccc(Cl)c(F)c1: rule met

====

# PROCEDURE TEXT: Intrinsic clearance in human hepatocytes measured per 10^6 cells
# Assay type: ADME, cell-based, Hepatocyte
# CONDITION: read-out: CLH
Note to self: values exactly at 5 µL/min/1e6 cells are Criterion met. So hepatocyte CLint at or above 5 µL/min/1e6 cells is Criterion met, below is Criterion not met.

CC(C)(C)S(=O)(=O)C[C@H](C1CC1)N1C(=O)[C@@](C)(Cc2ncc(CC(=O)O)o2)C[C@H](c2cccc(Cl)c2)[C@H]1c1ccc(Cl)c(F)c1: Criterion not met
CC(C)(C(=O)O)c1cnc(C[C@@]2(C)C[C@H](c3cccc(Cl)c3)[C@@H](c3ccc(Cl)cc3)N([C@H](CS(=O)(=O)C(C)(C)C)C3CC3)C2=O)s1: Criterion not met
CC(C)(C)S(=O)(=O)C[C@H](C1CC1)N1C(=O)[C@@](C)(Cc2ncc(C3(C(=O)O)CC3)s2)C[C@H](c2cccc(Cl)c2)[C@H]1c1ccc(Cl)cc1: Criterion met
CC(C)(C)S(=O)(=O)C[C@H](C1CC1)N1C(=O)[C@@](C)(Cc2ncc(CC(=O)O)s2)C[C@H](c2cccc(Cl)c2)[C@H]1c1ccc(Cl)cc1: Criterion met

====

# PROCEDURE TEXT: Clearance in rat at 0.5 mg/kg, iv
# Assay type: ADME, organism-based
# Set-up: dose 0.5 mg/kg, route intravenous
# CONDITION: in vivo
Mark label 1 for clearance under 4 mL/min/kg, label 0 if at or over.

CC(C)(C)S(=O)(=O)C[C@H](C1CC1)N1C(=O)[C@@](C)(Cc2ncc(C(=O)O)s2)C[C@H](c2cccc(Cl)c2)[C@H]1c1ccc(Cl)cc1: label 1
CC(C)(C)S(=O)(=O)C[C@H](C1CC1)N1C(=O)[C@@](C)(Cc2ncc(CC(=O)O)s2)C[C@H](c2cccc(Cl)c2)[C@H]1c1ccc(Cl)c(F)c1: label 1
CC(C)(C)S(=O)(=O)C[C@H](C1CC1)N1C(=O)[C@@](C)(Cc2ncc(C(=O)O)s2)C[C@H](c2cccc(Cl)c2)[C@H]1c1ccc(Cl)c(F)c1: label 1
CC(C)(C)S(=O)(=O)C[C@H](C1CC1)N1C(=O)[C@@](C)(Cc2ccc(C(=O)O)cn2)C[C@H](c2cccc(Cl)c2)[C@H]1c1ccc(Cl)cc1: label 0
CC(C)(C)S(=O)(=O)C[C@H](C1CC1)N1C(=O)[C@@](C)(Cc2ncc(CC(=O)O)s2)C[C@H](c2cccc(Cl)c2)[C@H]1c1ccc(Cl)cc1: label 0
